Data origin: patent US11685732B2

Please go through the items and note down their IC50.
- assay.system: KAT-5 (Homo sapiens (Human), UniProt Q92993)
- Sequence (Q92993 other isoform, or with tags, fused parts or gaps): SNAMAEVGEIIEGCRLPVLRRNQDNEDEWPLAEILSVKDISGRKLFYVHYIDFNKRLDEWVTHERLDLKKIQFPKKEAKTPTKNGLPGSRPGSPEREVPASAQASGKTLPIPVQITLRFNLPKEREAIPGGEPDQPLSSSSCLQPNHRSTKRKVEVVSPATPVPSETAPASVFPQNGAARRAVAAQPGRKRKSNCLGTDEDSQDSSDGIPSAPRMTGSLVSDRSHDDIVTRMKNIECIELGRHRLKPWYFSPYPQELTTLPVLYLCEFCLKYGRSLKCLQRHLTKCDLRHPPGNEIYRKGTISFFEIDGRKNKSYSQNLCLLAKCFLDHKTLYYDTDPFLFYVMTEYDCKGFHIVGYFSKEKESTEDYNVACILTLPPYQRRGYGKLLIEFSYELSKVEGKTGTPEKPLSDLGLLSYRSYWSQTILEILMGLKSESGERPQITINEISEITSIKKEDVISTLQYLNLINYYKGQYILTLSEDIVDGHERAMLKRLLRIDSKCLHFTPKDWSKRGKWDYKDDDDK
- experiment: KAT-5 biochemical inhibition assay (SAMDI mass spectrometry)

Which measured IC50 value corresponds to Cn1cnc(-c2cc(Cl)c(F)c(C(=O)NNS(=O)(=O)CC3CCC(F)(F)CC3)c2)c1 ?
< 10 µM

Which measured IC50 value corresponds to Cn1cnc(-c2cc(Cl)c(F)c(C(=O)NNS(=O)(=O)C3CCOC3)c2)c1 (centres unmarked) ?
10 to 50 µM

Which measured IC50 value corresponds to Cc1ncc(-c2cc(Cl)c(F)c(C(=O)NNS(=O)(=O)C3CCCCC3)c2)n1C ?
10 to 50 µM

Which measured IC50 value corresponds to CNC(=O)N1CCC(CS(=O)(=O)NNC(=O)c2cc(-c3cn(C)cn3)cc(Cl)c2F)C1 (centres unmarked) ?
< 10 µM

Which measured IC50 value corresponds to Cn1cnc(-c2cc(Cl)c(F)c(C(=O)NNS(=O)(=O)CC3CCCN(C(=O)NCCO)C3)c2)c1 (centres unmarked) ?
< 10 µM

Which measured IC50 value corresponds to Cn1cnc(-c2cc(Cl)c(F)c(C(=O)NNS(=O)(=O)CC3CCOCC3)c2)c1 ?
< 10 µM

Which measured IC50 value corresponds to CCNC(=O)N1CC(CS(=O)(=O)NNC(=O)c2cc(-c3cn(C)cn3)cc(Cl)c2F)C1 ?
10 to 50 µM

Which measured IC50 value corresponds to Cn1cnc(-c2cc(Cl)c(F)c(C(=O)NNS(=O)(=O)CC3CCCC(NC(=O)c4ccccc4)C3)c2)c1 (centres unmarked) ?
< 10 µM

* * *

- assay.system: KAT-5 (Homo sapiens (Human), UniProt Q92993)
- experiment: KAT-5 biochemical inhibition assay (SAMDI mass spectrometry)
pIC50: −log10 of the molar value.
Please go through the items and note down their pIC50.

Recorded pIC50 for COC1CCC(CS(=O)(=O)NNC(=O)c2cc(-c3cn(C)cn3)cc(Cl)c2F)C1 (centres unmarked) [Compound I-387] with KAT-5 (Homo sapiens (Human), UniProt Q92993), please?
> 5.00

Recorded pIC50 for COc1ccc(CNC(=O)N2CCC(CS(=O)(=O)NNC(=O)c3cc(-c4cn(C)cn4)cc(Cl)c3F)C2)cc1 (centres unmarked) [Compound I-181] with KAT-5 (Homo sapiens (Human), UniProt Q92993), please?
> 5.00

Recorded pIC50 for Cn1cnc(-c2cc(Cl)c(F)c(C(=O)NNS(=O)(=O)CC3CCCc4ccccc43)c2)c1 (centres unmarked) [Compound I-264] with KAT-5 (Homo sapiens (Human), UniProt Q92993), please?
> 5.00

Recorded pIC50 for Cn1cnc(-c2cc(Cl)c(F)c(C(=O)NNS(=O)(=O)C[C@H]3C[C@H](NC(=O)OC(C)(C)C)C3)c2)c1 [Compound I-124] with KAT-5 (Homo sapiens (Human), UniProt Q92993), please?
> 5.00

Recorded pIC50 for CC(C)C(=O)NC1CCCC(CS(=O)(=O)NNC(=O)c2cc(-c3cn(C)cn3)cc(Cl)c2F)C1 (centres unmarked) [Compound I-206] with KAT-5 (Homo sapiens (Human), UniProt Q92993), please?
> 5.00

Recorded pIC50 for CN(C(=O)OC(C)(C)C)C1CCC(CS(=O)(=O)NNC(=O)c2cc(-c3cn(C)cn3)cc(Cl)c2F)CC1 (centres unmarked) [Compound I-296] with KAT-5 (Homo sapiens (Human), UniProt Q92993), please?
> 5.00

Recorded pIC50 for Cn1cnc(-c2cc(Cl)c(F)c(C(=O)NNS(=O)(=O)C[C@H]3CCC[C@@H](O)C3)c2)c1 [Compound I-300] with KAT-5 (Homo sapiens (Human), UniProt Q92993), please?
> 5.00

Recorded pIC50 for Cn1cnc(-c2ccc(F)c(C(=O)NNS(=O)(=O)C[C@H]3CCC[C@H](O)C3)c2)c1 [Compound I-305] with KAT-5 (Homo sapiens (Human), UniProt Q92993), please?
4.30 to 5.00

Recorded pIC50 for Cn1cnc(-c2cc(Cl)c(F)c(C(=O)NNS(=O)(=O)Cc3nn(C)cc3Cl)c2)c1 [Compound I-474] with KAT-5 (Homo sapiens (Human), UniProt Q92993), please?
> 5.00

Recorded pIC50 for Cn1cnc(-c2cc(Cl)c(F)c(C(=O)NNS(=O)(=O)CC3CCC4CCC3N4)c2)c1 (centres unmarked) [Compound I-251] with KAT-5 (Homo sapiens (Human), UniProt Q92993), please?
4.30 to 5.00

Recorded pIC50 for Cn1cnc(-c2cc(Cl)c(F)c(C(=O)NNS(=O)(=O)C[C@H]3CCC[C@@H](OCc4ccccc4)C3)c2)c1 [Compound I-290] with KAT-5 (Homo sapiens (Human), UniProt Q92993), please?
> 5.00

Recorded pIC50 for CC(=O)N[C@H]1C[C@@H](CS(=O)(=O)NNC(=O)c2cc(-c3cn(C)cn3)cc(Cl)c2F)C1 [Compound I-116] with KAT-5 (Homo sapiens (Human), UniProt Q92993), please?
> 5.00

Recorded pIC50 for CCS(=O)(=O)N1CC(CS(=O)(=O)NNC(=O)c2cc(-c3cn(C)cn3)cc(Cl)c2F)C1 [Compound I-164] with KAT-5 (Homo sapiens (Human), UniProt Q92993), please?
4.30 to 5.00

Recorded pIC50 for Cn1ccc(-c2cc(Cl)c(F)c(C(=O)NNS(=O)(=O)CC3CCCCC3)c2)n1 [Compound I-4] with KAT-5 (Homo sapiens (Human), UniProt Q92993), please?
> 5.00

Recorded pIC50 for CC(C)S(=O)(=O)NNC(=O)c1cc(-c2cn(C)cn2)cc(Cl)c1F [Compound I-14] with KAT-5 (Homo sapiens (Human), UniProt Q92993), please?
4.00 to 4.30

Recorded pIC50 for COc1ccc(CNC(=O)N2CCCC(CS(=O)(=O)NNC(=O)c3cc(-c4cn(C)cn4)cc(Cl)c3F)C2)cc1 (centres unmarked) [Compound I-214] with KAT-5 (Homo sapiens (Human), UniProt Q92993), please?
> 5.00

Recorded pIC50 for CC(=O)N1CCCC(CS(=O)(=O)NNC(=O)c2cc(-c3cn(C)cn3)cc(C)c2F)C1 (centres unmarked) [Compound I-142] with KAT-5 (Homo sapiens (Human), UniProt Q92993), please?
> 5.00

Recorded pIC50 for CNC(=O)N[C@H]1C[C@@H](CS(=O)(=O)NNC(=O)c2cc(-c3cn(C)cn3)cc(Cl)c2F)C1 [Compound I-186] with KAT-5 (Homo sapiens (Human), UniProt Q92993), please?
> 5.00

Recorded pIC50 for CCNC(=O)N1CCCC(CS(=O)(=O)NNC(=O)c2cc(-c3cn(C)cn3)cc(Cl)c2F)C1 (centres unmarked) [Compound I-105] with KAT-5 (Homo sapiens (Human), UniProt Q92993), please?
> 5.00

Recorded pIC50 for Cn1cnc(-c2cc(Cl)c(F)c(C(=O)NNS(=O)(=O)C[C@@H]3CCN(C(=O)OC(C)(C)C)C3)c2)c1 [Compound I-117] with KAT-5 (Homo sapiens (Human), UniProt Q92993), please?
> 5.00

Recorded pIC50 for CC1CCN(C(=O)OC(C)(C)C)CC1CS(=O)(=O)NNC(=O)c1cc(-c2cn(C)cn2)cc(Cl)c1F (centres unmarked) [Compound I-303] with KAT-5 (Homo sapiens (Human), UniProt Q92993), please?
> 5.00

Recorded pIC50 for CN[C@H]1CC[C@H](CS(=O)(=O)NNC(=O)c2cc(-c3cn(C)cn3)cc(Cl)c2F)CC1 [Compound I-337] with KAT-5 (Homo sapiens (Human), UniProt Q92993), please?
4.30 to 5.00

Recorded pIC50 for Cn1cnc(-c2cc(Cl)c(F)c(C(=O)NNS(=O)(=O)C[C@H]3CCNC3)c2)c1 [Compound I-121] with KAT-5 (Homo sapiens (Human), UniProt Q92993), please?
4.30 to 5.00

Recorded pIC50 for CN(CC(F)(F)F)C1CCCC(CS(=O)(=O)NNC(=O)c2cc(-c3cn(C)cn3)cc(Cl)c2F)C1 (centres unmarked) [Compound I-473] with KAT-5 (Homo sapiens (Human), UniProt Q92993), please?
> 5.00

Recorded pIC50 for Cc1nc(-c2cc(Cl)c(F)c(C(=O)NNS(=O)(=O)CC3CCOCC3)c2)co1 [Compound I-80] with KAT-5 (Homo sapiens (Human), UniProt Q92993), please?
4.30 to 5.00

Recorded pIC50 for CN1CCN(C2CCCC(CS(=O)(=O)NNC(=O)c3cc(-c4cn(C)cn4)cc(Cl)c3F)C2)C1=O (centres unmarked) [Compound I-281] with KAT-5 (Homo sapiens (Human), UniProt Q92993), please?
> 5.00

Recorded pIC50 for CN(C)C(=O)N1CCC(CS(=O)(=O)NNC(=O)c2cc(-c3cn(C)cn3)cc(Cl)c2F)C1 (centres unmarked) [Compound I-66] with KAT-5 (Homo sapiens (Human), UniProt Q92993), please?
> 5.00

Recorded pIC50 for CCNC(=O)N1C[C@H](CS(=O)(=O)NNC(=O)c2cc(-c3cn(C)cn3)cc(Cl)c2F)[C@@H](C)C1 [Compound I-271] with KAT-5 (Homo sapiens (Human), UniProt Q92993), please?
4.30 to 5.00

Recorded pIC50 for Cn1cnc(-c2cc(Cl)c(F)c(C(=O)NNS(=O)(=O)CC3CNCCN3)c2)c1 (centres unmarked) [Compound I-472] with KAT-5 (Homo sapiens (Human), UniProt Q92993), please?
< 4.00
